experiment: Inhibition of Metallo-beta-lactamase VIM-1 (unknown origin) using FC5 as fluorescence substrate preincubated for 10 mins followed by substrate addition by microplate reader analysis
QUANTITY: IC50 (µM)
// note: answer is a bare numeric in µM

Example entries and their recorded answers appear below.
O=C(O)c1nccn1Cc1ccncc1; 29.5
O=C(O)c1ncsc1CCc1ccc(Br)cc1; 8.37
O=C(O)c1nccn1CCc1cccs1; 1.07
O=C(O)c1ncsc1CCc1ccc(C(F)(F)F)cc1; 14.5
O=C(O)c1nccn1CCCc1ccccc1; 0.63

Reported IC50 for O=C(O)c1ncsc1CCc1ccccc1F was 1.82

Reported IC50 for O=C(Cn1ccnc1C(=O)O)c1ccccc1 was 5.02

Reported IC50 for O=C(O)c1nccn1CCc1ccc(Br)cc1 was 3.5

Reported IC50 for O=C(O)c1ncsc1CCc1ccc(F)cc1 was 4.09

Reported IC50 for O=C(O)c1nccn1CCc1cccc(Cl)c1 was 0.96

Reported IC50 for O=C(O)c1nccn1CCc1ccc(Cl)cc1 was 8.37

Reported IC50 for O=C(O)c1nccn1CCc1ccccc1 was 2.32

Reported IC50 for O=C(O)c1nccn1CCc1ccccn1 was 3.83

Reported IC50 for CCC(c1ccccc1)n1ccnc1C(=O)O (centres undefined) was 30.8

Reported IC50 for O=C(O)c1nccn1CCc1ccc(-c2ccccc2)cc1 was 2.37

Reported IC50 for O=C(O)c1nccn1CCc1ccc([N+](=O)[O-])cc1 was 4.84

###

Entries and their IC50 values follow.
assay: Inhibition of Metallo-beta-lactamase IMP-1 (unknown origin) using FC5 as fluorescence substrate preincubated for 10 mins followed by substrate addition by microplate reader analysis

Cc1ncsc1CCn1ccnc1C(=O)O; > 100 µM
O=C(O)c1ncsc1CCc1ccc(Br)cc1; > 100 µM

Okay, now this compound:
Reported IC50 for O=C(O)c1nccn1CCc1ccc(Cl)cc1 was > 100 µM

###

assay: Inhibition of Metallo-beta-lactamase VIM-5 (unknown origin) using FC5 as fluorescence substrate preincubated for 10 mins followed by substrate addition by microplate reader analysis
QUANTITY: IC50 (nM)
// note: answer is a bare numeric in nM

CC(c1ccccc1)n1ccnc1C(=O)O (centres undefined); 3810
O=C(O)c1ncsc1CCc1cccc(Br)c1; 1450

Reported IC50 for Cc1ccc(CCn2ccnc2C(=O)O)cc1 was 6280

Reported IC50 for O=C(O)c1nccn1CCCc1ccccc1 was 830

###

test system: Escherichia coli; test: Antibacterial activity against Escherichia coli C1542 expressing VIM-2 assessed as meropenem MIC at 10 ug/ml incubated for 16 to 18 hrs in presence of meropenem by two-fold serial dilution method; type: functional; conditions: dose 10 µg/ml, time 16-18 hrs
QUANTITY: MIC

Example entries and their recorded answers appear below.
O=C(O)c1nccn1Cc1ccccc1; 16 µg/mL
O=C(O)c1nccn1Cc1ccncc1; ≤ 0.25 µg/mL

Reported MIC for O=C(O)c1nccn1CCc1ccc2ccccc2c1 was ≤ 0.25 µg/mL

###

test: Inhibition of Metallo-beta-lactamase VIM-1 (unknown origin) using FC5 as fluorescence substrate preincubated for 10 mins followed by substrate addition by microplate reader analysis
Entries and their pIC50 values follow.
For clarity, pIC50 is expressed as the negative log10 of concentration in mol/L.

Reported pIC50 for O=C(O)c1nccn1CCc1ccc2ccccc2c1 was 5.15

Reported pIC50 for O=C(O)c1ncsc1Cc1ccccc1 was 5.20

Reported pIC50 for COc1ccc(CCn2ccnc2C(=O)O)cc1OC was 4.12

Reported pIC50 for O=C(O)c1nccn1CCc1cccc2ccccc12 was 5.38

Reported pIC50 for O=C(O)c1nccn1CCOc1ccccc1 was 4.84

Reported pIC50 for COc1cccc(CCc2scnc2C(=O)O)c1 was 5.32

Reported pIC50 for CC(c1ccccc1)n1ccnc1C(=O)O (stereo not drawn) was 5.09

Reported pIC50 for O=C(O)c1ncsc1CCc1ccc(C(c2ccccc2)(c2ccccc2)c2ccccc2)cc1 was 5.02
